Experiment: cell viability in Huh7 cells, primary screen, cytotoxicity control for HCV replication inhibitor project, CellTiter-Glo luminescence, basal, 48 h (AID 1143);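 further: Huh7 hepatoma cells carrying a hepatitis C replication reporter with no stimulus; test concentration not given here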
Settings: Huh7 HCV replicon, higher = more signal, called active from +8 up or from −8 down
Use -1 as the dividing line for z-score, with the line itself on the label 1 side and lower values as label 0.

Answered cases to consult:
# bool: z-score of COC(=O)[C@@]1(Cc2ccc(F)cc2)[C@H]2c3cc(C(=O)N(C)C)n(Cc4ccc(S(C)(=O)=O)cc4)c3C[C@H]2CN1C(=O)c1ccccc1 >= -1 label 1

# bool: z-score of COc1cc2c(cc1O)C=[N+](Cc1cccc(OC(F)(F)F)c1)CC2 >= -1 label 0

# bool: z-score of CN1C(=O)C2C=CC(C(O)c3cc(C(F)(F)F)cc(C(F)(F)F)c3)N(N3CCCCC3)C2C1=O (configuration not stated) >= -1 label 1

# bool: z-score of COc1cc2c(cc1OC)CN(C(=O)[C@H]1[C@@H]3C(=O)O[C@@H](c4ccccc4)[C@@H](c4ccccc4)N3[C@@H](c3ccc(O)cc3)[C@]13C(=O)Nc1ccc(C#CC4=CCCCC4)cc13)CC2 >= -1 label 0

# bool: z-score of CCOC(=O)[C@H]1C/C=C/C[C@H](C(=O)OCC)C(=O)O[C@H]2[C@@H](OC)O[C@H](CO)[C@@H](OC(=O)Nc3cccc(F)c3)[C@@H]2OC1=O >= -1 label 0

Next item in the queue.
# bool: z-score of COc1ccc(C(O)C2C=CC3C(=O)NC(=O)C3N2Nc2ccccn2)c2ccccc12 (configuration not stated) >= -1 label 1
